The values you see were collected from the supplement of paper PMC5998384.

system: HeLa Kyoto; assay: melting temperature (median over replicates), in situ; higher = more thermally stable; conditions: cell cycle stage: mitosis
Result type: melting temperature
Just so you know, I need the unit written after the number.

Some sequences with recorded melting temperature:
MMAAGAALALALWLLMPPVEVGGAGPPPIQDGEFTFLLPAGRKQCFYQSAPANASLETEYQVIGGAGLDVDFTLESPQGVLLVSESRKADGVHTVEPTEAGDYKLCFDNSFSTISEKLVFFELIFDSLQDDEEVEGWAEAVEPEEMLDVKMEDIKESIETMRTRLERSIQMLTLLRAFEARDRNLQEGNLERVNFWSAVNVAVLLLVAVLQVCTLKRFFQDKRPVPT [TMED1] = 57.2 °C
MALRACGLIIFRRCLIPKVDNNAIEFLLLQASDGIHHWTPPKGHVEPGEDDLETALRETQEEAGIEAGQLTIIEGFKRELNYVARNKPKTVIYWLAEVKDYDVEIRLSHEHQAYRWLGLEEACQLAQFKEMKAALQEGHQFLCSIEA [NUDT2] = 51.9 °C
MGELPLDINIQEPRWDQSTFLGRARHFFTVTDPRNLLLSGAQLEASRNIVQNYRAGVVTPGITEDQLWRAKYVYDSAFHPDTGEKVVLIGRMSAQVPMNMTITGCMLTFYRKTPTVVFWQWVNQSFNAIVNYSNRSGDTPITVRQLGTAYVSATTGAVATALGLKSLTKHLPPLVGRFVPFAAVAAANCINIPLMRQRELQVGIPVADEAGQRLGYSVTAAKQGIFQVVISRICMAIPAMAIPPLIMDTLEKKDFLKRRPWLGAPLQVGLVGFCLVFATPLCCALFPQKSSIHISNLEPELRAQIHEQNPSVEVVYYNKGL [SFXN3] = 53.5 °C

[in] Quick one: melting temperature of MRPVRLMKVFVTRRIPAEGRVALARAADCEVEQWDSDEPIPAKELERGVAGAHGLLCLLSDHVDKRILDAAGANLKVISTMSVGIDHLALDEIKKRGIRVGYTPDVLTDTTAELAVSLLLTTCRRLPEAIEEVKNGGWTSWKPLWLCGYGLTQSTVGIIGLGRIGQAIARRLKPFGVQRFLYTGRQPRPEEAAEFQAEFVSTPELAAQSDFIVVACSLTPATEGLCNKDFFQKMKETAVFINISRGDVVNQDDLYQALASGKIAAAGLDVTSPEPLPTNHPLLTLKNCVILPHIGSATHRTRNTMSLLAANNLLAGLRGEPMPSELKL [GRHPR] ?
[out] 55 °C

[in] Subsequent entry: MGLLDRLSVLLGLKKKEVHVLCLGLDNSGKTTIINKLKPSNAQSQNILPTIGFSIEKFKSSSLSFTVFDMSGQGRYRNLWEHYYKEGQAIIFVIDSSDRLRMVVAKEELDTLLNHPDIKHRRIPILFFANKMDLRDAVTSVKVSQLLCLENIKDKPWHICASDAIKGEGLQEGVDWLQDQIQTVKT [ARL6]
[out] 50.3 °C

[in] Subsequent entry: MAAASGSVLQRCIVSPAGRHSASLIFLHGSGDSGQGLRMWIKQVLNQDLTFQHIKIIYPTAPPRSYTPMKGGISNVWFDRFKITNDCPEHLESIDVMCQVLTDLIDEEVKSGIKKNRILIGGFSMGGCMAIHLAYRNHQDVAGVFALSSFLNKASAVYQALQKSNGVLPELFQCHGTADELVLHSWAEETNSMLKSLGVTTKFHSFPNVYHELSKTELDILKLWILTKLPGEMEKQK [LYPLAL1]
[out] 52.3 °C

[in] Subsequent entry: MHQQKRQPELVEGNLPVFVFPTELIFYADDQSTHKQVLTLYNPYEFALKFKVLCTTPNKYVVVDAAGAVKPQCCVDIVIRHRDVRSCHYGVIDKFRLQVSEQSQRKALGRKEVVATLLPSAKEQQKEEEEKRLKEHLTESLFFEQSFQPENRAVSSGPSLLTVFLGVVCIAALMLPTLGDVESLVPLYLHLSVNQKLVAAYILGLITMAILRT [MOSPD1]
[out] 54.9 °C

[in] Subsequent entry: MDNSGKEAEAMALLAEAERKVKNSQSFFSGLFGGSSKIEEACEIYARAANMFKMAKNWSAAGNAFCQAAQLHLQLQSKHDAATCFVDAGNAFKKADPQEAINCLMRAIEIYTDMGRFTIAAKHHISIAEIYETELVDIEKAIAHYEQSADYYKGEESNSSANKCLLKVAGYAALLEQYQKAIDIYEQVGTNAMDSPLLKYSAKDYFFKAALCHFCIDMLNAKLAVQKYEELFPAFSDSRECKLMKKLLEAHEEQNVDSYTESVKEYDSISRLDQWLTTMLLRIKKTIQGDEEDLR [NAPA]
[out] 52.2 °C

[in] Subsequent entry: MELSAEYLREKLQRDLEAEHVEVEDTTLNRCSCSFRVLVVSAKFEGKPLLQRHRLVNACLAEELPHIHAFEQKTLTPDQWARERQK [BOLA2]
[out] 51.9 °C

[in] Subsequent entry: MAARWRFWCVSVTMVVALLIVCDVPSASAQRKKEMVLSEKVSQLMEWTNKRPVIRMNGDKFRRLVKAPPRNYSVIVMFTALQLHRQCVVCKQADEEFQILANSWRYSSAFTNRIFFAMVDFDEGSDVFQMLNMNSAPTFINFPAKGKPKRGDTYELQVRGFSAEQIARWIADRTDVNIRVIRPPNYAGPLMLGLLLAVIGGLVYLRRSNMEFLFNKTGWAFAALCFVLAMTSGQMWNHIRGPPYAHKNPHTGHVNYIHGSSQAQFVAETHIVLLFNGGVTLGMVLLCEAATSDMDIGKRKIMCVAGIGLVVLFFSWMLSIFRSKYHGYPYSFLMS [MAGT1]
[out] 53.3 °C

[in] Subsequent entry: MPLENLEEEGLPKNPDLRIAQLRFLLSLPEHRGDAAVRDELMAAVRDNNMAPYYEALCKSLDWQIDVDLLNKMKKANEDELKRLDEELEDAEKNLGESEIRDAMMAKAEYLCRIGDKEGALTAFRKTYDKTVALGHRLDIVFYLLRIGLFYMDNDLITRNTEKAKSLIEEGGDWDRRNRLKVYQGLYCVAIRDFKQAAELFLDTVSTFTSYELMDYKTFVTYTVYVSMIALERPDLREKVIKGAEILEVLHSLPAVRQYLFSLYECRYSVFFQSLAVVEQEMKKDWLFAPHYRYYVREMRIHAYSQLLESYRSLTLGYMAEAFGVGVEFIDQELSRFIAAGRLHCKIDKVNEIVETNRPDSKNWQYQETIKKGDLLLNRVQKLSRVINM [PSMD6]
[out] 53.2 °C

---

Listed here are sequences together with their documented solubility change mitosis (log2).
test system: HeLa Kyoto; assay: solubility change mitosis vs G1/S (difference of NP-40 vs SDS log2 ratios) (log2 ratio difference); higher = more soluble in mitosis
Number only, please.

Some sequences with recorded solubility change mitosis (log2):
MSKGRAEAAAGAAGILLRYLQEQNRPYSSQDVFGNLQREHGLGKAVVVKTLEQLAQQGKIKEKMYGKQKIYFADQDQFDMVSDADLQVLDGKIVALTAKVQSLQQSCRYMEAELKELSSALTTPEMQKEIQELKKECAGYRERLKNIKAATNHVTPEEKEQVYRERQKYCKEWRKRKRMATELSDAILEGYPKSKKQFFEEVGIETDEDYNVTLPDP [PSMC3IP] = 0.072
MAHVGSRKRSRSRSRSRGRGSEKRKKKSRKDTSRNCSASTSQGRKASTAPGAEASPSPCITERSKQKARRRTRSSSSSSSSSSSSSSSSSSSSSSSSSDGRKKRGKYKDKRRKKKKKRKKLKKKGKEKAEAQQVEALPGPSLDQWHRSAGEEEDGPVLTDEQKSRIQAMKPMTKEEWDARQSIIRKVVDPETGRTRLIKGDGEVLEEIVTKERHREINKQATRGDCLAFQMRAGLLP [ARL6IP4] = 0.853

Okay, next one:
[in] Lab note: need solubility change mitosis (log2) with HeLa Kyoto for entry MAGWWPALSRAARRHPWPTNVLLYGSLVSAGDALQQRLQGREANWRQTRRVATLVVTFHANFNYVWLRLLERALPGRAPHALLAKLLCDQVVGAPIAVSAFYVGMSILQGKDDIFLDLKQKFWNTYLSGLMYWPFVQLTNFSLVPVQWRTAYAGVCGFLWATFICFSQQSGDGTFKSAFTILYTKGTSATEGYPKK [MPV17L] , please look it up.
[out] -0.192

---

test system: HeLa Kyoto; assay: melting temperature (median over replicates), in situ; higher = more thermally stable; conditions: cell cycle stage: G1/S
Listed here are sequences together with their documented melting temperature.
Express your answer in °C, writing the number without its unit.

Some sequences with recorded melting temperature:
MAAVSVYAPPVGGFSFDNCRRNAVLEADFAKRGYKLPKVRKTGTTIAGVVYKDGIVLGADTRATEGMVVADKNCSKIHFISPNIYCCGAGTAADTDMTTQLISSNLELHSLSTGRLPRVVTANRMLKQMLFRYQGYIGAALVLGGVDVTGPHLYSIYPHGSTDKLPYVTMGSGSLAAMAVFEDKFRPDMEEEEAKNLVSEAIAAGIFNDLGSGSNIDLCVISKNKLDFLRPYTVPNKKGTRLGRYRCEKGTTAVLTEKITPLEIEVLEETVQTMDTS [PSMB7] = 60.7
MAEFPSKVSTRTSSPAQGAEASVSALRPDLGFVRSRLGALMLLQLVLGLLVWALIADTPYHLYPAYGWVMFVAVFLWLVTIVLFNLYLFQLHMKLYMVPWPLVLMIFNISATVLYITAFIACSAAVDLTSLRGTRPYNQRAAASFFACLVMIAYGVSAFFSYQAWRGVGSNAATSQMAGGYA [PLLP] = 56.7
MSKPPPKPVKPGQVKVFRALYTFEPRTPDELYFEEGDIIYITDMSDTNWWKGTSKGRTGLIPSNYVAEQAESIDNPLHEAAKRGNLSWLRECLDNRVGVNGLDKAGSTALYWACHGGHKDIVEMLFTQPNIELNQQNKLGDTALHAAAWKGYADIVQLLLAKGARTDLRNIEKKLAFDMATNAACASLLKKKQGTDAVRTLSNAEDYLDDEDSD [OSTF1] = 49.3
MSVAGLKKQFHKATQKVSEKVGGAEGTKLDDDFKEMERKVDVTSRAVMEIMTKTIEYLQPNPASRAKLSMINTMSKIRGQEKGPGYPQAEALLAEAMLKFGRELGDDCNFGPALGEVGEAMRELSEVKDSLDIEVKQNFIDPLQNLHDKDLREIQHHLKKLEGRRLDFDYKKKRQGKIPDEELRQALEKFDESKEIAESSMFNLLEMDIEQVSQLSALVQAQLEYHKQAVQILQQVTVRLEERIRQASSQPRREYQPKPRMSLEFPTGDSTQPNGGLSHTGTPKPSGVQMDQPCCRALYDFEPENEGELGFKEGDIITLTNQIDENWYEGMLHGHSGFFPINYVEILVALPH [SH3GL2] = 48.7

Okay, next one:
[in] Quick one: melting temperature of MEQPWPPPGPWSLPRAEGEAEEESDFDVFPSSPRCPQLPGGGAQMYSHGIELACQKQKEFVKSSVACKWNLAEAQQKLGSLALHNSESLDQEHAKAQTAVSELRQREEEWRQKEEALVQREKMCLWSTDAISKDVFNKSFINQDKRKDTEDEDKSESFMQKYEQKIRHFGMLSRWDDSQRFLSDHPYLVCEETAKYLILWCFHLEAEKKGALMEQIAHQAVVMQFIMEMAKNCNVDPRGCFRLFFQKAKAEEEGYFEAFKNELEAFKSRVRLYSQSQSFQPMTVQNHVPHSGVGSIGLLESLPQNPDYLQYSISTALCSLNSVVHKEDDEPKMMDTV [CDC37L1] ?
[out] 46.3
